Assay: Elimination half life in human liver microsomes incubated for 10 mins followed by potassium phosphate buffer addition and measured up to 60 mins by LC-MS analysis
Format: ADME, Microsome
Conditions: time <=70 min, read-out: LambdaZ
quantityMeasured: half-life (min)

>>> print(df.to_string())
                                   molecule  observed
0  CC(O)(C#Cc1ccc2nccc(-c3cn[nH]c3)c2c1)c1nccs1 (stereo unspecified)      33.1

* * *

Assay: Intrinsic clearance in dog liver microsomes assessed per mg protein incubated for 10 mins followed by potassium phosphate buffer addition and measured up to 60 mins by LC-MS analysis
Type: ADME, Canis lupus familiaris, Microsome
Settings: time <=70 min, read-out: CLH
quantityMeasured: microsomal CLint (µL/min/mg)

>>> df
                                   molecule  quantitymeasured  readingunit  observed
0  CC(O)(C#Cc1ccc2nccc(-c3cn[nH]c3)c2c1)c1nccs1 (stereo unspecified)  microsomal CLint    µL/min/mg      97.5

* * *

Assay: Intrinsic hepatic clearance in rat
Format: ADME
Settings: in vivo, read-out: CLH
quantityMeasured: CLint scaled (mL/min/kg)

                                   molecule  readingunit  observed
0  CC(O)(C#Cc1ccc2nccc(-c3cn[nH]c3)c2c1)c1nccs1 (stereo unspecified)    mL/min/kg       199

* * *

Test system: JJN-3
Experiment: Antiproliferative activity against human JJN-3 cells transfected with plasmid expressing NIK
Format: functional, cell-based
pEC50: −log10 of the molar value.
quantityMeasured: pEC50

                               smilesstring  observed
0  CN1CCC(n2cc(-c3c[nH]nc3Cl)c3cc(C#CC(C)(C)O)c(F)cc32)CC1      7.21

* * *

Experiment: Antiinflammatory activity in mouse T cells assessed as inhibition of ConA-induced induced T cell proliferation at 2 uM incubated for 48 hrs by CCK8 assay relative to control
Type: functional
quantityMeasured: inhibition at 2 µM

>>> df
                                   molecule    quantitymeasured  observed
0  CC(O)(C#Cc1ccc2c(c1)N(c1nc(N)ncc1Cl)CC2)c1nccs1 (configuration not stated)  inhibition at 2 µM     59.6%
1  CN1CCN(c2cc(-c3cn[nH]c3)c3cc(C#CC(C)(O)c4nccs4)ccc3n2)CC1 (configuration not stated)  inhibition at 2 µM     36.7%
2  CC(O)(C#Cc1ccc2nccc(-c3cn[nH]c3)c2c1)c1nccs1 (configuration not stated)  inhibition at 2 µM     52.5%
3  CNc1cc(-c2cn[nH]c2)c2cc(C#CC(C)(O)c3nccs3)ccc2n1 (configuration not stated)  inhibition at 2 µM     34.5%
4  COCCN(C)c1cc(-c2cn[nH]c2)c2cc(C#CC(C)(O)c3nccs3)ccc2n1 (configuration not stated)  inhibition at 2 µM     53.1%
5  CN(C)CCN(C)c1cc(-c2cn[nH]c2)c2cc(C#CC(C)(O)c3nccs3)ccc2n1 (configuration not stated)  inhibition at 2 µM     22.7%
6  CC(O)(C#Cc1ccc2nc(O)cc(-c3cn[nH]c3)c2c1)c1nccs1 (configuration not stated)  inhibition at 2 µM     27.2%

* * *

Assay: Initial plasma concentration in Sprague-Dawley rat at 1 mg/kg, iv administered as single bolus dose by LC-MS analysis
Type: ADME, organism-based
quantityMeasured: C0 (ng/mL)

                                   compound  quantitymeasured  observed
0  CC(O)(C#Cc1ccc2nccc(-c3cn[nH]c3)c2c1)c1nccs1 (stereo unspecified)                C0      1000
